Source listed as the supplement of paper PMC6555819.

Tested on: PPARg:RXRa (NR concentration 180 nM, RXRa partner concentration 90 nM)
method.notes: PBM binding z-score (relative to random genomic background probes); higher = stronger binding; sequences stand for … in GC…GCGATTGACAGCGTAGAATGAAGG
Let's look at some sequences and their measured PBM binding z-score.

sequence.chain | PBM binding z-score
ACTAGTTGGTTAGCTGAGGTCACACACAATTCGG | 1.63
TCTCGGAGGACACGATAGGTCAGAGCTCGACATC | 0.595
CCTCGGAGGACACAAGGTCAGAGCTGTCCGCTTT | 0.424
TCGAGTAGGTTAGGGGCAATCAGAATGGCGTCGA | 1.53
ATCTCTAGGTAAAGTTCAGTGGAAGATCGATAGA | 2.75
GAAACGAGGGCATTCGAGTTGATAGCATGGCGAT | 1.35

----------
System: THRa:RXRa (NR concentration 90 nM, RXRa partner concentration 90 nM)
method.notes: PBM binding z-score (relative to random genomic background probes); higher = stronger binding; sequences stand for … in GC…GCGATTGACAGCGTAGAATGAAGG
Let's look at some sequences and their measured PBM binding z-score.
assay.endpoint: PBM binding z-score

sequence.chain | meas.value
ATCGAAAGGTCGTGCGGTGAGTATACAGAAAGGC | 2.51
TCATAGAGGTAAATGCTAGGTGAAAGTCCGATCT | 1.94
TAGCCTAGGTCATGGGCCATTATACCACGCGAAC | 3.17
CGTCCAAAGTCAATGCTAGGTCAGTGAAAGCATT | 2.01
GCTTACGGGTCAAAGGTTTTAGCATGAATAGAAT | 2.76
CGTACTGGGCCAAGGTCATTGATCAGTCAAAGCA | 3.42
CCTCGTAGGACAGAAGGTCAGAGCTGTCCGCTTT | 1.7
AGAATGAGGTTAAGATCAGGGAAACAGAATACAT | 2.67
CAAACTAGGTCAAGGTGAAAGTCGGTTTGTGCCA | 3.49
TCATATAGGTAAAAGTTGAAAGTCGGTGTGGTAA | 0.586
TCATATAGGTAAAGGTGAATGTCGAACGATATGA | 1.16
CCTCGGAGGACAGAAGCTCAGAGCTGTCCGCTTT | -0.606
ATCGAAAGGTCGAGGTGAGTATCGAGAAAGGGAA | 2.65
CCTAGCAGGCCAGGGTGACTCAAGCATTTCGCTT | 0.244
ATATGTAGGTTAGCTGGGGTCGTTCAGACTAGGC | 4.63
CAAACTGGGTCAAGGTCAAAGTCGGTTTGTGCCA | 4.27
ATACCAAGGTGATCGTGCGGTCGTTGATACTAAC | 1.23
CAAACTAGGTCACCGGAAGGTCTAAGTCCGCATG | 3.88
CGTTACGGGTCAAGGTTATAGCACGGGTGGTACG | 3.24
ATACCAATGTGATCGTGAGGTCGTTGATACTAAC | 2.45
ACTAGCAGCCCAAGTTTGGGTCACTCAAACAAAG | 2.1
AATCCAGGGTCACTAGGCCAGAGTAGGTACGAAT | 3.54
CCGAGTAGGTTATGGGCCATTCAGGCAACGGTGA | 0.298
ATCTCTGGGTAACCAAGTTCAGTGAATGCCGAAC | 1.46
GCTCGGAGGACAAGGTCAGACCTTTGTCCGTAGA | 2.94
TCTTGCAGATCAACAGGAGGTTAAGAAAGATCGA | 0.859
CGAACGAGGGCATGAGTTCATAGCAAATGCCGAT | 2.73
ACTCGGAGGACAACGGTCAGAGCTACGCCAGTGA | 0.773
GATACAGGGTCAAGGCCAGAGTGCGCGTATTGAT | 3.42
TCTAGCAGGCCAGAGGGTCACTCATGAGGTACGG | 1.59
ACTTACGGGTCAACGAGGTTATATCACGCGTATA | 4.04
ATCGAACGGTCGAAGGTGAGTATACCCACCCGAA | -0.016
GCTAGATGGTCAGTAAAAGGTCACACACCGGTCG | 3.69
TCTATTAGTTGATTAGGGCAATCGAAACAGCGGA | 0.453
ACTTACTGGTCAACGAGGTTATAGCACGCGTATA | 2.26
ATCCAAAGGTCGTGAGGTGAGTATACAGAAAGGC | 3.66
CCTAGCAGGCCAGGGACACTCAAGCATTTCGCTT | 0.512
ACTAGCAGGCCAAGTTTGGCTCACTCAAACAAAG | -0.267
GCGACTGGGGCATCACCAGGTTACCATAACTTAA | 1.92
TCATATAGGTAATACAGGTGAATGTCGGCATCTA | 0.991
CCTTGGAGGACAACAGGAGGTCAGAGCTGCCAGA | 2.88
CCGACTGGGTCAAGGTTACCATAACGCACAGCCA | 2.83
AGAACGAGAGCAATGAGTTGATAGCACGGGTGGC | -0.86
GCTCGGAGGACAAGGTCAGAGCGTTGTCCGTAGA | 2.89
GCGCCTGGGGCAAAGCAGGTTACCATAAGGTTGG | 2.96
CTACCAAGGTGTACAAGGTCGTTGATTACTATTC | 1.99
AGAACGAGGGCACGCTGAGTTGATAACAGAGTAG | 1.78
CCTAGTTGGTAAAGGTCACACACGCTATAGGTAC | 4.12
GGAACGAGGGCATTGGAGTTGATAGCATGGCGAT | 1.9
CGAACGAGGGCATGAGTTGATTGCAAATGCCGAT | 1.22
AGTCAAAGTTCAGGACAAGGTAACGTAAAGCACG | 4.05
